Below, each entry is listed with its recorded pIC50.
- System: 1A9
- measurement_protocol: Inhibition of growth in 1A9 cell line after 72 hrs
- Type: functional, cell-based
- details: Homo sapiens, 1A9, 72 h
Just the number, please; pIC50 means minus log10 of the concentration in mol/L.

Use these answered entries as a reference point.
Exercise: Quick one: pIC50 for `CC(=O)O[C@H]1C(=O)[C@@]2(C)[C@@H]3[C@H](OC(=O)c4ccccc4)[C@]4(O)C[C@H](OC(=O)[C@H](O)[C@@H](NC(=O)c5ccccc5)c5ccccc5OCCCC(=O)O[C@]35CO[C@@H]5C[C@@H]2O)C(C)=C1C4(C)C` ?
Key: 7.72

Exercise: Quick one: pIC50 for `C=CCCC(=O)O[C@@]12CO[C@@H]1C[C@H](O)[C@@]1(C)C(=O)[C@H](OC(C)=O)C3=C(C)[C@@H](OC(=O)[C@H](O)[C@@H](NC(=O)c4ccccc4)c4cccc(C=C)c4)C[C@@](O)([C@@H](OC(=O)c4ccccc4)[C@H]21)C3(C)C` ?
Key: 7.86

Exercise: Quick one: pIC50 for `CC(=O)O[C@H]1C(=O)[C@@]2(C)[C@H]([C@H](OC(=O)c3ccccc3)[C@]3(O)C[C@H](OC(=O)[C@H](O)[C@@H](NC(=O)c4ccccc4)c4ccccc4)C(C)=C1C3(C)C)[C@]1(OC(C)=O)CO[C@@H]1C[C@@H]2O` ?
Key: 8.32

Exercise: Quick one: pIC50 for `CC(=O)O[C@H]1C(=O)[C@@]2(C)[C@@H]3[C@H](OC(=O)c4ccccc4)[C@]4(O)C[C@H](OC(=O)[C@H](O)[C@@H](NC(=O)c5ccccc5)c5cccc(c5)OC/C=C/CCC(=O)O[C@]35CO[C@@H]5C[C@@H]2O)C(C)=C1C4(C)C` ?
Key: 7.61

Exercise: Quick one: pIC50 for CC(=O)O[C@H]1C(=O)[C@]2(C)C(O)C[C@H]3OC[C@]34OC(=O)/C=C\Cc3ccccc3[C@H](NC(=O)c3ccccc3)[C@@H](O)C(=O)O[C@H]3C[C@@](O)([C@@H](OC(=O)c5ccccc5)[C@H]42)C(C)(C)C1=C3C (stereo partly specified) ?
Key: 9.49

Kindly review the next compound as well.
Exercise: Quick one: pIC50 for `CC(=O)O[C@H]1C(=O)[C@@]2(C)[C@@H]3[C@H](OC(=O)c4ccccc4)[C@]4(O)C[C@H](OC(=O)[C@H](O)[C@@H](NC(=O)c5ccccc5)c5cccc(c5)/C=C/CCC(=O)O[C@]35CO[C@@H]5C[C@@H]2O)C(C)=C1C4(C)C` ?
Key: 7.89

---

- measurement_target: Tubulin (Homo sapiens) (UniProt P68371+Q9H4B7+P0DPH7+P68366+Q13509+Q71U36+P04350+Q3ZCM7+P07437+P68363+Q9BQE3+Q6PEY2+Q13885+Q9BVA1+Q9BUF5)
- measurement_protocol: Induction of GTP-tubulin polymerization
- Assay type: protein-complex assay
Hi! Just check whether ED50 is below 900 nM. Below gives Yes, equal or above gives No.

Use the examples below as a reference point.
Exercise: API: query returns whether the compound falls strictly under 900 nM in ED50. Query: `CC(=O)O[C@H]1C(=O)[C@@]2(C)[C@@H]3[C@H](OC(=O)c4ccccc4)[C@]4(O)C[C@H](OC(=O)[C@H](O)[C@@H](NC(=O)OC(C)(C)C)c5ccccc5/C=C/CC(=O)O[C@]35CO[C@@H]5C[C@@H]2O)C(C)=C1C4(C)C`
Key: Yes

Exercise: API: query returns whether the compound falls strictly under 900 nM in ED50. Query: `C=CCc1ccccc1[C@H](NC(=O)c1ccccc1)[C@@H](O)C(=O)O[C@H]1C[C@@]2(O)[C@@H](OC(=O)c3ccccc3)[C@@H]3[C@]4(OC(=O)C=C)CO[C@@H]4C[C@H](O)[C@@]3(C)C(=O)[C@H](OC(C)=O)C(=C1C)C2(C)C`
Key: No

Exercise: API: query returns whether the compound falls strictly under 900 nM in ED50. Query: `CC(=O)O[C@H]1C(=O)[C@@]2(C)[C@@H]3[C@H](OC(=O)c4ccccc4)[C@]4(O)C[C@H](OC(=O)[C@H](O)[C@@H](NC(=O)c5ccccc5)c5ccccc5OCCCCCCC(=O)O[C@]35CO[C@@H]5C[C@@H]2O)C(C)=C1C4(C)C`
Key: Yes

Exercise: API: query returns whether the compound falls strictly under 900 nM in ED50. Query: `C=CCCC(=O)O[C@@]12CO[C@@H]1C[C@H](O)[C@@]1(C)C(=O)[C@H](OC(C)=O)C3=C(C)[C@@H](OC(=O)[C@H](O)[C@@H](NC(=O)c4ccccc4)c4cccc(OCC=C)c4)C[C@@](O)([C@@H](OC(=O)c4ccccc4)[C@H]21)C3(C)C`
Key: No

Exercise: API: query returns whether the compound falls strictly under 900 nM in ED50. Query: `CC(=O)O[C@H]1C(=O)[C@@]2(C)[C@@H]3[C@H](OC(=O)c4ccccc4)[C@]4(O)C[C@H](OC(=O)[C@H](O)[C@@H](NC(=O)c5ccccc5)c5ccccc5OC/C=C/CCCCC(=O)O[C@]35CO[C@@H]5C[C@@H]2O)C(C)=C1C4(C)C`
Key: No

Continuing:
Exercise: API: query returns whether the compound falls strictly under 900 nM in ED50. Query: `CC(=O)O[C@H]1C(=O)[C@@]2(C)[C@@H]3[C@H](OC(=O)c4ccccc4)[C@]4(O)C[C@H](OC(=O)[C@H](O)[C@@H](NC(=O)c5ccccc5)c5cccc(c5)/C=C/CCC(=O)O[C@]35CO[C@@H]5C[C@@H]2O)C(C)=C1C4(C)C`
Key: No

Exercise: API: query returns whether the compound falls strictly under 900 nM in ED50. Query: `CC(=O)O[C@H]1C(=O)[C@@]2(C)[C@@H]3[C@H](OC(=O)c4ccccc4)[C@]4(O)C[C@H](OC(=O)[C@H](O)[C@@H](NC(=O)c5ccccc5)c5ccccc5OCCCCC(=O)O[C@]35CO[C@@H]5C[C@@H]2O)C(C)=C1C4(C)C`
Key: Yes

Exercise: API: query returns whether the compound falls strictly under 900 nM in ED50. Query: `C=CCCCC(=O)O[C@@]12CO[C@@H]1C[C@H](O)[C@@]1(C)C(=O)[C@H](OC(C)=O)C3=C(C)[C@@H](OC(=O)[C@H](O)[C@@H](NC(=O)c4ccccc4)c4cccc(OCC=C)c4)C[C@@](O)([C@@H](OC(=O)c4ccccc4)[C@H]21)C3(C)C`
Key: No

Exercise: API: query returns whether the compound falls strictly under 900 nM in ED50. Query: `CC(=O)O[C@H]1C(=O)[C@@]2(C)[C@@H]3[C@H](OC(=O)c4ccccc4)[C@]4(O)C[C@H](OC(=O)[C@H](O)[C@@H](NC(=O)c5ccccc5)c5ccccc5/C=C/CC(=O)O[C@]35CO[C@@H]5C[C@@H]2O)C(C)=C1C4(C)C`
Key: Yes

Exercise: API: query returns whether the compound falls strictly under 900 nM in ED50. Query: `C=CCCC(=O)O[C@@]12CO[C@@H]1C[C@H](O)[C@@]1(C)C(=O)[C@H](OC(C)=O)C3=C(C)[C@@H](OC(=O)[C@H](O)[C@@H](NC(=O)c4ccccc4)c4cccc(C=C)c4)C[C@@](O)([C@@H](OC(=O)c4ccccc4)[C@H]21)C3(C)C`
Key: Yes

---

Below, each entry is listed with its recorded ED50.
- measurement_target: Tubulin (Homo sapiens) (UniProt P68371+Q9H4B7+P0DPH7+P68366+Q13509+Q71U36+P04350+Q3ZCM7+P07437+P68363+Q9BQE3+Q6PEY2+Q13885+Q9BVA1+Q9BUF5)
- measurement_protocol: Induction of GTP-tubulin polymerization
- Assay type: protein-complex assay
Give just the number in nM; leave the unit off.

Exercise: Quick one: ED50 for `C=CCOc1ccccc1[C@H](NC(=O)c1ccccc1)[C@@H](O)C(=O)O[C@H]1C[C@@]2(O)[C@@H](OC(=O)c3ccccc3)[C@@H]3[C@]4(OC(=O)C=C)CO[C@@H]4C[C@H](O)[C@@]3(C)C(=O)[C@H](OC(C)=O)C(=C1C)C2(C)C` ?
Key: 1200

Continuing:
Exercise: Quick one: ED50 for `CC(=O)O[C@H]1C(=O)[C@@]2(C)[C@@H]3[C@H](OC(=O)c4ccccc4)[C@]4(O)C[C@H](OC(=O)[C@H](O)[C@@H](NC(=O)c5ccccc5)c5ccccc5OC/C=C/CCCC(=O)O[C@]35CO[C@@H]5C[C@@H]2O)C(C)=C1C4(C)C` ?
Key: 530

---

- Tested on: 1A9
- measurement_protocol: Inhibition of growth in 1A9 cell line after 72 hrs
- Type: functional, cell-based
- details: Homo sapiens, 1A9, 72 h
Below, each entry is listed with its recorded pIC50.
Just the number, please; pIC50 means minus log10 of the concentration in mol/L.

Exercise: Quick one: pIC50 for `CC(=O)O[C@H]1C(=O)[C@@]2(C)[C@@H]3[C@H](OC(=O)c4ccccc4)[C@]4(O)C[C@H](OC(=O)[C@H](O)[C@@H](NC(=O)c5ccccc5)c5ccccc5OCC/C=C/C(=O)O[C@]35CO[C@@H]5C[C@@H]2O)C(C)=C1C4(C)C` ?
Key: 7.91

Exercise: Quick one: pIC50 for `CC(=O)O[C@H]1C(=O)[C@@]2(C)[C@@H]3[C@H](OC(=O)c4ccccc4)[C@]4(O)C[C@H](OC(=O)[C@H](O)[C@@H](NC(=O)c5ccccc5)c5ccccc5OC/C=C\C(=O)O[C@]35CO[C@@H]5C[C@@H]2O)C(C)=C1C4(C)C` ?
Key: 8.15

Exercise: Quick one: pIC50 for `CC(=O)O[C@H]1C(=O)[C@@]2(C)[C@@H]3[C@H](OC(=O)c4ccccc4)[C@]4(O)C[C@H](OC(=O)[C@H](O)[C@@H](NC(=O)c5ccccc5)c5ccccc5CCCC(=O)O[C@]35CO[C@@H]5C[C@@H]2O)C(C)=C1C4(C)C` ?
Key: 10.15

Exercise: Quick one: pIC50 for `C=CCCC(=O)O[C@@]12CO[C@@H]1C[C@H](O)[C@@]1(C)C(=O)[C@H](OC(C)=O)C3=C(C)[C@@H](OC(=O)[C@H](O)[C@@H](NC(=O)c4ccccc4)c4ccccc4OCC=C)C[C@@](O)([C@@H](OC(=O)c4ccccc4)[C@H]21)C3(C)C` ?
Key: 8.74
